- study.target: UniProt Q3TBT3
- assay.remarks: STING differential scanning fluorimetry (DSF) assay, mouse STING
- conditions: net shift in melting temperature
property.measured: MOUSE DSF_6xHIS-SUMO Tm Shift (° C.)

COc1c(Cl)ccc2c(=O)c3ccc(NC4CCC4)cc3n(CC(=O)O)c12 [Compound 292]    D (“D” > 15° C.)
O=C(O)Cn1c2cc(-c3ccncc3)ccc2c(=O)c2ccc(Cl)c(Cl)c21 [Compound 189]    C (“C” = 5-15° C.)
O=C(O)Cn1c2ccccc2c(=O)c2ccc(Cl)c(OCCO)c21 [Compound 328]    C (“C” = 5-15° C.)
O=C(O)Cn1c2cc(NCCN3CCc4ccccc43)ccc2c(=O)c2ccc(Cl)c(Cl)c21 [Compound 150]    C (“C” = 5-15° C.)
CC(C)c1ccc(-c2ccc3c(c2)c(=O)c2ccc(Cl)c(Br)c2n3CC(=O)O)cc1 [Compound 109]    B (“B” = 0-5° C.)

According to the records, this molecule COc1cccc2c(=O)c3ccc(Cl)c(OC)c3n(CC(=O)O)c12 [Compound 333] displays MOUSE DSF_6xHIS-SUMO Tm Shift (° C.) of B (“B” = 0-5° C.)

According to the records, this molecule CC1(C)CCC=C(c2ccc3c(=O)c4ccc(Cl)c(Cl)c4n(CC(=O)O)c3c2)C1 [Compound 157] displays MOUSE DSF_6xHIS-SUMO Tm Shift (° C.) of D (“D” > 15° C.)

According to the records, this molecule COc1c(Cl)ccc2c(=O)c3ccc(-c4cccc(O)c4)cc3n(CC(=O)O)c12 [Compound 270] displays MOUSE DSF_6xHIS-SUMO Tm Shift (° C.) of D (“D” > 15° C.)

According to the records, this molecule CCOc1c(Cl)ccc2c(=O)c3ccccc3n(CC(=O)O)c12 [Compound 244] displays MOUSE DSF_6xHIS-SUMO Tm Shift (° C.) of C (“C” = 5-15° C.)

According to the records, this molecule NC(=O)Cn1c2ccccc2c(=O)c2ccc(Cl)c(Cl)c21 [Compound 146] displays MOUSE DSF_6xHIS-SUMO Tm Shift (° C.) of B (“B” = 0-5° C.)
